- Target Desc: UniProtKB P08473
- Run Description: Enzymatic digestion with neprylysine analysed by LC/MS/MS
- Assay type: in vitro ADME
- Assay Setup: isolated enzyme neprilysin; T = 30 min, neprylysine; read-out: Percentage of digestion
Bridge positions count the residues as written; N and C are the ends. Peptide text beside a SMILES is read from it.
Property: metabolised at 0.5 h (%)
Write the value in % as a bare number.

Value of metabolised at 0.5 h reported for the molecule N=C(N)NCCC[C@@H]1NC(=O)[C@H](CO)NC(=O)[C@@H](NC(=O)[C@H](CO)NC(=O)[C@H](CO)NC(=O)[C@H](Cc2c[nH]c3ccccc23)NC(=O)CNC(=O)[C@H](CO)NC(=O)[C@@H](N)Cc2c[nH]c3ccccc23)CSSC[C@@H](C(=O)NCC(=O)O)NC(=O)[C@H](CO)NC1=O [SEQ ID NO: 2, W-S-G-W-S-S-C-S-R-S-C-G] (H-WSGWSSCSRSCG-OH; disulfide 7-11) is 8.5

----------
- Target Desc: neprylysine (Homo sapiens, UniProt P08473)
- Sequence (P08473 whole entry): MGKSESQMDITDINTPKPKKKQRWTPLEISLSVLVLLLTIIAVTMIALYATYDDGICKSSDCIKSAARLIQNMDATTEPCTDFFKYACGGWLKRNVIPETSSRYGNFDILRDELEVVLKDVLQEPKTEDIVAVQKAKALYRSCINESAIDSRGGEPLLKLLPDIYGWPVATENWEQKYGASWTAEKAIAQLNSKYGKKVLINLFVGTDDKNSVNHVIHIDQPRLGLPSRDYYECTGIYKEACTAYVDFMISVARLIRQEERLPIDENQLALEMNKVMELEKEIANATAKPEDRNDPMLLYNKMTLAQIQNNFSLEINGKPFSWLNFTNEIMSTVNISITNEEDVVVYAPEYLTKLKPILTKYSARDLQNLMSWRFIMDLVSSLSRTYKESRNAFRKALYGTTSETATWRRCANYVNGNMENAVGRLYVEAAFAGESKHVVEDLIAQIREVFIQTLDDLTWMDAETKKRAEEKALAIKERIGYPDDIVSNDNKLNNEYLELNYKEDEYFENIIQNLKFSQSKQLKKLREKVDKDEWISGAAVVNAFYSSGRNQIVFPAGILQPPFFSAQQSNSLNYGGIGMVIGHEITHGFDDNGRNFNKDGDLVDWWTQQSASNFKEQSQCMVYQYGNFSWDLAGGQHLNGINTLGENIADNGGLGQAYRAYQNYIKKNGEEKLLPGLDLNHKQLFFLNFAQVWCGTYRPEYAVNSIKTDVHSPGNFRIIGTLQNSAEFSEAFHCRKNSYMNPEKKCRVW
- Run Description: Enzymatic digestion with neprylysine analysed by LC/MS/MS
- Type: in vitro ADME
- Assay Setup: isolated neprylysine enzyme; T = 30 min, neprylysine; read-out: Percentage of digestion
Peptide text beside a SMILES is read from it.
Property: metabolised at 0.5 h (%)
Write the value in % as a bare number.

Value of metabolised at 0.5 h reported for the molecule N=C(N)NCCC[C@H](NC(=O)[C@H](CO)NC(=O)[C@H](CS)NC(=O)[C@H](CO)NC(=O)[C@H](CO)NC(=O)[C@H](Cc1c[nH]c2ccccc12)NC(=O)CNC(=O)[C@H](CO)NC(=O)[C@@H](N)Cc1c[nH]c2ccccc12)C(=O)N[C@@H](CO)C(=O)N[C@@H](CS)C(=O)NCC(=O)O [SEQ ID NO: 58, W-S-G-W-S-S-C-S-R-S-C-G] (H-WSGWSSCSRSCG-OH; N-terminus and C-terminus assumed) is 28

----------
- Run Description: physchem
- Assay Setup: aqueous 0.9% NaCl solution
Peptide text beside a SMILES is read from it.
Property: solubility

Value of solubility reported for the compound N=C(N)NCCC[C@H](NC(=O)[C@H](CO)NC(=O)[C@H](CS)NC(=O)[C@H](CO)NC(=O)[C@H](CO)NC(=O)[C@H](Cc1c[nH]c2ccccc12)NC(=O)CNC(=O)[C@H](CO)NC(=O)[C@@H](N)Cc1c[nH]c2ccccc12)C(=O)N[C@@H](CO)C(=O)N[C@@H](CS)C(=O)NCC(=O)O [SEQ ID NO: 58, W-S-G-W-S-S-C-S-R-S-C-G] (H-WSGWSSCSRSCG-OH; N-terminus and C-terminus assumed) is ~2 mg/mL
